Readings of growth for the listed compounds
Test system: HL-60(TB) leukemia
Assay Remarks: NCI-60 one-dose screen, 48 h (100 = growth as untreated, 0 = no growth, -100 = all killed)
Test Parameters: 10 µM unless noted
Experimental: Growth inhibition of the HL-60(TB) human tumor cell line is measured as a screen for anti-cancer activity. Cells are grown in 96 well plates and exposed to the test compound for 48 hours. Compounds are tested at a single concentration, which is 10^-5 M for most compounds. The reported endpoint is percent growth (GI% or GIPRCNT), where numbers from 0 - 100% represent growth inhibition, and numbers from -100% - 0 represent cell death. For example, a value of 40 represents 60% growth inhibition. […]
The panel holds about 83,000 compounds, 20% with a hit somewhere; the sample as a whole holds those more often.
Express your answer in %, writing the number without its unit.

- Compound: "C=CCOC(=O)C1=C(C)N(CC)C(=O)NC1c1c(Cl)n(C)c2ccccc12 (centres undefined)"
  Numeric Result: 99.2
- Compound: "C=C1C(=O)O[C@H]2[C@H]1CC/C(CNC(=O)/C1=C/CC[C@@]3(C)O[C@H]3[C@H]3OC(=O)C(=C)[C@@H]3CC1)=C\\CC[C@@]1(C)O[C@@H]21"
  Numeric Result: 57.4
- Compound: "COc1cccc(C2C3=C(COC3=O)N(CCO)c3cc4c(cc32)CCC4)c1 (centres undefined)"
  Numeric Result: -0.364

Please turn your attention to the following entry.
Just so you know, measured growth for `Cc1cc2nc(C(Cl)Cl)nc(-c3ccccc3)n2n1` came out at -14.1

----------
Tested on: CAKI-1 renal
Assay Remarks: NCI-60 one-dose screen, 48 h (100 = growth as untreated, 0 = no growth, -100 = all killed)
Test Parameters: 10 µM unless noted
Compounds without any hit were thinned out: in the full panel of roughly 83,000, 20% have a hit.
Observation Type: growth (%)
Express your answer in %, writing the number without its unit.

- Molecule: "CC(=O)Nc1ccc(C=C2C(=O)NC(=O)NC2=O)cc1"
  growth / %: 97.5
- Molecule: "O=C(NCCNC(=O)c1ccc([As](O)O)cc1)c1ccc([As](O)O)cc1"
  growth / %: 98.3
- Molecule: "Cc1ccc(N)cc1[As]=[As]c1cc(N)ccc1C (configuration not stated)"
  growth / %: -91.2

Just so you know, measured growth for `Cc1cc(CCl)c(C)cc1CCl` came out at 5.81

Just so you know, measured growth for `CC(=O)O[C@@H]1C2=C(C)C3(CC3)[C@@](C)(O)C(=O)C2=C[C@@]1(C)CO` came out at 3.26

Just so you know, measured growth for Fc1ccc(C2=NN(c3ccccc3)C(c3sc(N(CCCl)CCCl)nc3Cl)C2)cc1 (configuration not stated) came out at 62.2

Just so you know, measured growth for `C/C1=C/C(=O)O[C@@H]2C[C@@H](CC[C@H](C)/C=C\C=C\CC1)O[C@@](OCCc1ccccc1)([C@@H]1CSC(=O)N1)C2` came out at -74.3

----------
Test system: HL-60(TB) leukemia
Assay Remarks: NCI-60 one-dose screen, 48 h
Test Parameters: 10 µM unless noted
Compounds without any hit were thinned out: in the full panel of roughly 83,000, 20% have a hit. Active and inactive are the calls of the source. The calls were made as follows: active = growth percent below 10; inactive = the rest.
The reply should name one outcome from 1 = active, 0 = inactive

# count of solved cases: 2
- Compound: "COc1ccc(-c2nn(-c3ccccc3)cc2/C=C/C(=O)NNC(=O)Nc2ccc(C)cc2)cc1"
  Group Label: 0
- Compound: "Oc1ccccc1/C=N/N=C/c1c(O)ccc2ccccc12"
  Group Label: 0

Data request: What did the test return for `COc1ccc2cc(-c3ccnc4c(N=Nc5ccc(Cl)cc5)c(N)nn34)ccc2c1` ?
Data returned: 0

Data request: What did the test return for `CCCCOC(=O)c1ccccc1O` ?
Data returned: 0

Data request: What did the test return for `CCOC(=O)C1=C(Nc2ccc(Br)cc2)C(=O)N(CC)C1` ?
Data returned: 0

Data request: What did the test return for `CCOc1cccc(/C=N\Nc2nc(=O)cc(C(=O)OC)s2)c1O` ?
Data returned: 0

Data request: What did the test return for `O=C(c1cccc(Br)c1)N1CCN(c2ccnc3cc(Cl)ccc23)CC1` ?
Data returned: 0

Data request: What did the test return for `Cc1cc(Nc2nc(-c3cccnc3)nc3ccccc23)n[nH]1` ?
Data returned: 0

----------
Readings of growth for the listed molecules
Tested on: OVCAR-8 ovarian
Assay Remarks: NCI-60 one-dose screen, 48 h (100 = growth as untreated, 0 = no growth, -100 = all killed)
Test Parameters: 10 µM unless noted
Compounds without any hit were thinned out: in the full panel of roughly 83,000, 20% have a hit.
Express your answer in %, writing the number without its unit.

Some solved entries appear below for comparison.
- Molecule: "CC(C)(C)N(Cc1ccccc1)N=O"
  Assay System: "OVCAR-8 ovarian"
  Numeric Result: 95.7
- Molecule: "Cc1cc(N(CCCl)CCCl)ccc1C=Nc1ccc2ccccc2c1"
  Assay System: "OVCAR-8 ovarian"
  Numeric Result: 72.7
- Molecule: "COC1=CC(=O)OC(CCc2ccc3c(c2)OCO3)C1 (configuration not stated)"
  Assay System: "OVCAR-8 ovarian"
  Numeric Result: 96.1
- Molecule: "CC[C@@H](C)/C=C(C)/C=C/C(=O)c1c(O)c(-c2ccc(O)cc2)cn(O)c1=O"
  Assay System: "OVCAR-8 ovarian"
  Numeric Result: 4.95
- Molecule: "CCCCNCCc1ccccn1"
  Assay System: "OVCAR-8 ovarian"
  Numeric Result: 102
- Molecule: "COc1ccc(C(=O)c2ccc([As]=O)cc2)cc1 (configuration not stated)"
  Assay System: "OVCAR-8 ovarian"
  Numeric Result: -84.2

Just so you know, measured growth for CSc1ccccc1NP1(=O)OCC(C)([N+](=O)[O-])CO1 (configuration not stated) came out at 98

----------
System: HL-60(TB) leukemia
Assay Remarks: NCI-60 one-dose screen, 48 h
Test Parameters: 10 µM unless noted
Method: Growth inhibition of the HL-60(TB) human tumor cell line is measured as a screen for anti-cancer activity. Cells are grown in 96 well plates and exposed to the test compound for 48 hours. Compounds are tested at a single concentration, which is 10^-5 M for most compounds. The reported endpoint is percent growth (GI% or GIPRCNT), where numbers from 0 - 100% represent growth inhibition, and numbers from -100% - 0 represent cell death. For example, a value of 40 represents 60% growth inhibition. […]
Compounds without any hit were thinned out: in the full panel of roughly 83,000, 20% have a hit. Activity calls are given as the source filed them. The calls were made as follows: active = growth percent below 10; inactive = the rest.
The reply should name one outcome from active, inactive

# count of solved cases: 5
- Compound: "O=c1nc(Nc2nc3ccccc3s2)[nH]c(=O)c2ccccc12"
  Group Label: "inactive"
- Compound: "CCCCC(O)Cn1ncc(C(=O)OCC)c1NC(=O)NCc1ccccc1C(F)(F)F (stereo unspecified)"
  Group Label: "inactive"
- Compound: "COc1cc(-c2nc(NC(C)=O)sc2-c2ccnc(NCCNS(=O)(=O)c3ccccc3)n2)ccc1Cl"
  Group Label: "active"
- Compound: "O=C(NCCCN1CCCCC1)c1ccc(-c2nc3ccc4[nH]ncc4c3c3c2CCCC3)cc1"
  Group Label: "inactive"
- Compound: "COc1ccc(/C=N/OCC(O)CNCc2ccccc2)cc1OC1CCCC1 (stereo unspecified)"
  Group Label: "inactive"

Data request: What did the test return for `COc1cc(-c2nn(-c3ccc(NC(=O)c4ccc(Cl)c(Cl)c4)cc3)cc2-c2ccncc2)ccc1Cl` ?
Data returned: inactive

Data request: What did the test return for `C[C@@]1(C(=O)Nc2ccc(F)nc2)CCCN1c1nc(Nc2cc(C3CC3)[nH]n2)c2cccn2n1` ?
Data returned: active

Data request: What did the test return for `O=C(CCCCCCCCC(=O)N/N=C\c1ccccc1O)N/N=C\c1ccccc1O` ?
Data returned: inactive

----------
Readings of growth for the listed molecules
Test system: UACC-62 melanoma
Assay Remarks: NCI-60 one-dose screen, 48 h (100 = growth as untreated, 0 = no growth, -100 = all killed)
Test Parameters: 10 µM unless noted
Compounds without any hit were thinned out: in the full panel of roughly 83,000, 20% have a hit. Calls of active or inactive are those of the source. How the source made its calls: active means growth percent below 10; inactive means the rest.

Some solved entries appear below for comparison.
- Molecule: "CC(=O)OC1CCC2(C)C(=CCC3C4CC(CN5CC5)C(=O)C4(C)CCC32)C1 (stereo not drawn)"
  Assay System: "UACC-62 melanoma"
  Result: "94.4% (inactive)"
- Molecule: "CC1COC(=O)C1 (stereo not drawn)"
  Assay System: "UACC-62 melanoma"
  Result: "106% (inactive)"

Please turn your attention to the following entry.
Just so you know, measured growth for N#CCN1C(=O)C(CCC(N)=O)N=C(c2ccc(O)cc2)c2cc(Cl)ccc21 (stereo not drawn) came out at 91.5% [30 µM] (inactive)

----------
Tested on: UO-31 renal
Assay Remarks: NCI-60 one-dose screen, 48 h (100 = growth as untreated, 0 = no growth, -100 = all killed)
Test Parameters: 10 µM unless noted
Compounds without any hit were thinned out: in the full panel of roughly 83,000, 20% have a hit.
Everything with growth lower than 80% is FALSE; everything else, including exactly 80%, is TRUE.

- Compound: "C/C1=C/C(=O)O[C@@H]2C[C@@H](CC[C@H](C)/C=C\\C=C\\CC1)O[C@@](OCCc1ccccc1)([C@@H]1CSC(=O)N1)C2"
  Group Label: "FALSE"
- Compound: "C[C@]12CCc3sc(-c4ccc(Cl)cc4)nc3C1=CC[C@@H]1[C@@H]2CC[C@]2(C)C(=O)CC[C@@H]12"
  Group Label: "FALSE"
- Compound: "C[C@]12CC[C@H]3[C@@H](C[C@@H]4N=C(c5ccc(O)cc5)S[C@@]45C[C@H](O)CC[C@]35C)[C@@H]1CC[C@@H]2O"
  Group Label: "FALSE"
- Compound: "COc1cc[c]([Hg][Cl])cc1"
  Group Label: "TRUE"
- Compound: "C[CH2][Pb]([CH2]C)([CH2]C)[O]C(=O)COc1ccccc1"
  Group Label: "FALSE"
- Compound: "CC(C)Nc1ccc(Nc2ccccc2)cc1"
  Group Label: "TRUE"

# evaluate next
Data request: Dear colleague, could you confirm whether `CC[C@H](C)[C@H](NC(=O)Nc1ccccc1)C(=O)N(C)[C@H](C[C@@H](OC(C)=O)c1nc(C(=O)N[C@@H](Cc2ccccc2)C[C@H](C)C(=O)OC)cs1)C(C)C` has growth at or above 80%?
Data returned: FALSE
